I'd appreciate it if you could supply EC50 values for the items below.
Test system: TEAD
Experiment: TEAD reporter assay (Hippo Pathway TEAD Reporter - MCF7 cell line, luciferase)
Type: cell-based
Details: Homo sapiens; TEAD Reporter - MCF7 cells; read-out: TEAD Reporter Assay EC50

Past entries and their recorded results:
> print(dat)
                                   compound         result
1  CNS(=O)(=O)c1ccc(Nc2ccc(C(F)(F)F)cn2)c(-c2cn(Cc3ccccc3)cn2)c1 [I-71]  100 to 500 nM
2  CNS(=O)(=O)c1ccc(N[C@H](C)c2cccc(C(F)(F)F)c2)c(-c2cn(C)cn2)c1 [I-63]  100 to 500 nM
3  CNS(=O)(=O)c1ccc(Nc2ccc(C(F)(F)F)cc2)c(-c2cn(C)cn2)c1 [I-82]       < 100 nM
4  CNS(=O)(=O)c1ccc(Nc2ccc(C(F)(F)F)cn2)c(-c2cn(C)cn2)c1 [I-38]       < 100 nM
5  CNS(=O)(=O)c1ccc(NCc2ccc3scnc3c2)c(-c2cn(C)cn2)c1 [I-72]       < 100 nM

Would you mind listing EC50 for each of the following compounds?
1. CNS(=O)(=O)c1ccc(NCc2ccccc2C(F)(F)F)c(-c2cn(C)cn2)c1 [I-74]
2. CC[C@H](Nc1ccc(S(=O)(=O)NC)cc1-c1cn(C)cn1)c1ccccc1 [I-53]

Reply |
["< 100 nM", "> 500 nM"]

Ask | Give the reported value of EC50 for this record: CNS(=O)(=O)c1ccc(NC(CO)c2ccccc2)c(-c2cn(C)cn2)c1 (stereo in doubt) [I-39]
Reply | > 500 nM

* * *

I'd appreciate it if you could supply pEC50 values for the items below.
System: TEAD
Assay: TEAD reporter assay (Hippo Pathway TEAD Reporter - MCF7 cell line, luciferase)
Type: cell-based
Details: Homo sapiens; TEAD Reporter - MCF7 cells; read-out: TEAD Reporter Assay EC50
pEC50: −log10 of the molar value.

Past entries and their recorded results:
> print(dat)
                                   compound  parameter  result
1  COC(=O)c1ccc(NCc2ccccc2)c(-c2nnn(C)n2)c1 [I-26]      pEC50  < 6.30
2  CNS(=O)(=O)c1ccc(NCc2ccccc2)c(-c2cn(C)cn2)c1 [I-27]      pEC50  > 7.00
3  Cn1cnc(-c2cc(S(N)(=O)=O)ccc2NCc2ccccc2)c1 [I-42]      pEC50  < 6.30

Ask | Give the reported value of pEC50 for this record: CNS(=O)(=O)c1ccc(NCc2ccc(C(F)(F)F)cc2F)c(-c2cn(C)cn2)c1 [I-68]
Reply | > 7.00

* * *

Assay: Mouse pharmacokinetics study
Assay type: in vivo
Settings: BALB/c mice, 10 mg/kg by oral gavage in 5% DMS/95% PEG400, plasma
In this scheme, each record receives a class according to its Cmax; the ranges are low class (below 400 ng/mL), middle class (400 ng/mL to below 900 ng/mL), high class (900 ng/mL or more)

> print(dat)
                           smiles.structure  answer.label
1  CNS(=O)(=O)c1ccc(Nc2ccc(C(F)(F)F)cn2)c(-c2cn(C)cn2)c1    high class
2  CNS(=O)(=O)c1ccc(NCc2ccc(C(F)(F)F)cc2)c(-c2cn(C)cn2)c1    high class
3  CNS(=O)(=O)c1ccc(Nc2cccc(C(F)(F)F)c2)c(-c2cn(C)cn2)c1  middle class
4  CCNS(=O)(=O)c1ccc(Nc2cc(C(F)(F)F)ccn2)c(-c2cn(C)cn2)c1     low class
5  CNS(=O)(=O)c1ccc(NCc2ccccc2)c(-c2cn(C)cn2)c1    high class

Ask | Hey, which category is CNS(=O)(=O)c1ccc(NCc2cccc(C(F)(F)F)c2)c(-c2cn(C)cn2)c1 in, do you know?
Reply | middle class

Ask | Hey, which category is CNS(=O)(=O)c1cnc(Nc2cccc(C(F)(F)F)c2)c(-c2cn(C)cn2)c1 in, do you know?
Reply | low class

Ask | Hey, which category is CNS(=O)(=O)c1ccc(Nc2cc(C(F)(F)F)ccn2)c(-c2cn(C)cn2)c1 in, do you know?
Reply | middle class

Ask | Hey, which category is CNS(=O)(=O)c1ccc(Nc2cccc(C(F)(F)F)c2)c(-c2nnn(C)n2)c1 in, do you know?
Reply | low class
